# target: Endothelin-1 receptor (Mus musculus, UniProt Q61614)
# Sequence (Q61614 whole entry): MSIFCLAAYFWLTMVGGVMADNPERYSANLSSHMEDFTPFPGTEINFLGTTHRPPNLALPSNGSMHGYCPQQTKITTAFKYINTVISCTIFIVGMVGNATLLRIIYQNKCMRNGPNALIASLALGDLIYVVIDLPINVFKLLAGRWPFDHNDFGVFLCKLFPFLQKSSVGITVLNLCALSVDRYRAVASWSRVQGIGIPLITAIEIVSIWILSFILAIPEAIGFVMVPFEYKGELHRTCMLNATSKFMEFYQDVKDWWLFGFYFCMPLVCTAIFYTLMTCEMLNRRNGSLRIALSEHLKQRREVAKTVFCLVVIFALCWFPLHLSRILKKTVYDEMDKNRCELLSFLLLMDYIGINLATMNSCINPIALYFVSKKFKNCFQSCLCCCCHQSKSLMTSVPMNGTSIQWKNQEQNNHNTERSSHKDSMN
# measurement-description: Inhibition of [125I]ET1 binding to Endothelin A receptor of murine 3T3 cells
# Assay type: cell-based, NIH3T3
# measurement-parameters: nih3t3
readout-name: IC50 (nM)

* CC[C@H](C)[C@@H](NC(=O)[C@@H](CC(=O)O)NC(=O)[C@H]1CCCN1C(=O)[C@@H](Cc1ccccc1)NC(C)=O)C(=O)N[C@@H](C(=O)N[C@H](Cc1c[nH]c2ccccc12)C(=O)O)[C@@H](C)CC | 45

* * *

# target: Endothelin-1 receptor (Homo sapiens, UniProt P25101)
# Sequence (P25101 whole entry): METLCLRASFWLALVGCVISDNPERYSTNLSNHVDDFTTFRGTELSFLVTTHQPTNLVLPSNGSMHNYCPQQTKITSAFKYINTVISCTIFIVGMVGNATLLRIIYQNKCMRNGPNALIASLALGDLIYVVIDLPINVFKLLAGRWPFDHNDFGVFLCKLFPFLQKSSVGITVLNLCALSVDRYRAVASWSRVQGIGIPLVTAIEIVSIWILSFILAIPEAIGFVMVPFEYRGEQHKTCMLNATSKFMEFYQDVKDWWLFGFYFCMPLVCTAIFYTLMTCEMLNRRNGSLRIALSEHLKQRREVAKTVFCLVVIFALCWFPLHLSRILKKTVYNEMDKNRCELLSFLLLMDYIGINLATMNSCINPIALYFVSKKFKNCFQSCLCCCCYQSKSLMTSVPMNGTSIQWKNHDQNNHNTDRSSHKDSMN
pIC50: −log10 of the molar value.
readout-name: pIC50

• CC[C@H](C)[C@H](NC(=O)[C@H](CC(=O)O)NC(=O)CN(Cc1ccccc1)C(=O)[C@@H](Cc1ccccc1)NC(C)=O)C(=O)N[C@H](C(=O)N[C@@H](Cc1c[nH]c2ccccc12)C(=O)O)[C@@H](C)CC = 7.52

* * *

// reported IC50 for each item listed
# target: UniProt Q61614
# Sequence (Q61614 whole entry): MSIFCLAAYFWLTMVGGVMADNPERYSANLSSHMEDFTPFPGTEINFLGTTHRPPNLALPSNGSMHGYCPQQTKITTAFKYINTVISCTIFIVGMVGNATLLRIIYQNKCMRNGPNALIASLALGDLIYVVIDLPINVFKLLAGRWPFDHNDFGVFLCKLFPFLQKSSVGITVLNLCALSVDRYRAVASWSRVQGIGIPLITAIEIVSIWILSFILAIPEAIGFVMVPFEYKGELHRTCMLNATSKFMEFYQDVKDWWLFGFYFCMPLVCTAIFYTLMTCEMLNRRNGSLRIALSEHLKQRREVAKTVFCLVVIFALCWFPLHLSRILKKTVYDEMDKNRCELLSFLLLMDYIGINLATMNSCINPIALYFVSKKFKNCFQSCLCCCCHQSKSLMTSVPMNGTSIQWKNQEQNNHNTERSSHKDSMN
# measurement-description: Inhibition of [125I]ET1 binding to Endothelin A receptor of murine 3T3 cells
# Type: cell-based, NIH3T3
readout-name: IC50 (nM)

• CC[C@H](C)[C@H](NC(=O)[C@H](CC(=O)O)NC(=O)[C@H](Cc1ccc(O)cc1)NC(=O)[C@@H](Cc1ccccc1)NC(C)=O)C(=O)N[C@H](C(=O)N[C@@H](Cc1c[nH]c2ccccc12)C(=O)O)[C@@H](C)CC = 77
• CC[C@H](C)[C@H](NC(=O)[C@H](CC(=O)O)NC(=O)[C@H](CC(N)=O)NC(=O)[C@@H](Cc1ccccc1)NC(C)=O)C(=O)N[C@H](C(=O)N[C@@H](Cc1c[nH]c2ccccc12)C(=O)O)[C@@H](C)CC = 75
• CC[C@H](C)[C@H](NC(=O)[C@H](CC(=O)O)NC(=O)[C@H](CCCN)NC(=O)[C@@H](Cc1ccc(O)cc1)NC(C)=O)C(=O)N[C@H](C(=O)N[C@@H](Cc1c[nH]c2ccccc12)C(=O)O)[C@@H](C)CC = 26

* * *

# target: Endothelin-1 receptor (Mus musculus, UniProt Q61614)
# Sequence (Q61614 whole entry): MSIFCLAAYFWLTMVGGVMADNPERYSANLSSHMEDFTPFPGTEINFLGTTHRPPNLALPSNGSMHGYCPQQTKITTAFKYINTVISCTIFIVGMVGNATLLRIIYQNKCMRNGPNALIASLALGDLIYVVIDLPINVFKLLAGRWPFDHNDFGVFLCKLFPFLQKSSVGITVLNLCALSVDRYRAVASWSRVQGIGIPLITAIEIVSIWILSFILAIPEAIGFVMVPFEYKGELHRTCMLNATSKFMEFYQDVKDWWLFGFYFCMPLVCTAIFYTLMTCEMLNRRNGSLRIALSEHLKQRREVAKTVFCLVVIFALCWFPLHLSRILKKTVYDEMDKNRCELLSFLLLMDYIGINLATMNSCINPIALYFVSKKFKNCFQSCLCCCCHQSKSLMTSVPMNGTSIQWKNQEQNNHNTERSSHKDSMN
# measurement-description: Inhibition of [125I]ET1 binding to Endothelin A receptor of murine 3T3 cells
# Assay type: cell-based, NIH3T3
pIC50: −log10 of the molar value. Residues, ends and D or L forms follow the SMILES beside them.
# cutoff 7 applies to pIC50; >= gives met, < gives not met

• CC[C@H](C)[C@H](NC(=O)[C@H](CC(=O)O)NC(=O)[C@H](CCCN)NC(=O)[C@@H](Cc1c[nH]c2ccccc12)NC(C)=O)C(=O)N[C@H](C(=O)N[C@@H](Cc1c[nH]c2ccccc12)C(=O)O)[C@@H](C)CC = met
• CC[C@H](C)[C@H](NC(=O)[C@H](CC(=O)O)NC(=O)[C@H](Cc1ccccc1)NC(=O)[C@@H](Cc1ccccc1)NC(C)=O)C(=O)N[C@H](C(=O)N[C@@H](Cc1c[nH]c2ccccc12)C(=O)O)[C@@H](C)CC (HELM PEPTIDE1{[ac].[dF].F.D.I.I.W}$$$$V2.0) = not met
• CC[C@H](C)[C@H](NC(=O)[C@H](CC(=O)O)NC(=O)[C@H](C)NC(=O)[C@@H](Cc1ccccc1)NC(C)=O)C(=O)N[C@H](C(=O)N[C@@H](Cc1c[nH]c2ccccc12)C(=O)O)[C@@H](C)CC (HELM PEPTIDE1{[ac].[dF].A.D.I.I.W}$$$$V2.0) = met
• CC[C@H](C)[C@H](NC(=O)[C@H](CC(=O)O)NC(=O)CN(Cc1ccccc1)C(=O)[C@@H](Cc1ccccc1)NC(C)=O)C(=O)N[C@H](C(=O)N[C@@H](Cc1c[nH]c2ccccc12)C(=O)O)[C@@H](C)CC = met

* * *

# target: Endothelin-1 receptor (Mus musculus, UniProt Q61614)
# measurement-description: Inhibition of [125I]ET1 binding to Endothelin A receptor of murine 3T3 cells
# Type: cell-based, NIH3T3
Residues, ends and D or L forms follow the SMILES beside them.
readout-name: IC50 (nM)

* CC[C@H](C)[C@H](NC(=O)[C@H](CC(=O)O)NC(=O)[C@H](Cc1c[nH]c2ccccc12)NC(=O)[C@@H](Cc1ccccc1)NC(C)=O)C(=O)N[C@H](C(=O)N[C@@H](Cc1c[nH]c2ccccc12)C(=O)O)[C@@H](C)CC | 79
* CC[C@H](C)[C@H](NC(=O)[C@H](CCc1ccccc1)NC(=O)[C@H](CC(=O)O)NC(=O)[C@H](CCCN)NC(=O)[C@@H](Cc1ccccc1)NC(C)=O)C(=O)N[C@@H](Cc1c[nH]c2ccccc12)C(=O)O | 114
* CC[C@H](C)[C@H](NC(=O)[C@H](CC(=O)O)NC(=O)[C@@H](Cc1ccccc1)NC(=O)[C@@H](Cc1ccccc1)NC(C)=O)C(=O)N[C@H](C(=O)N[C@@H](Cc1c[nH]c2ccccc12)C(=O)O)[C@@H](C)CC (HELM PEPTIDE1{[ac].[dF].[dF].D.I.I.W}$$$$V2.0) | 98
* CC[C@H](C)[C@H](NC(=O)[C@H](CC(=O)O)NC(=O)[C@H](CCc1ccccc1)NC(=O)[C@@H](Cc1ccccc1)NC(C)=O)C(=O)N[C@H](C(=O)N[C@@H](Cc1c[nH]c2ccccc12)C(=O)O)[C@@H](C)CC | 70

FYI, the data here is from ChEMBL document CHEMBL1127202.
